Recorded IC50 values (Stromelysin-1 (Homo sapiens)) are given below.
value.kind: IC50 (nM)

structure.notation: COc1ccc(S(=O)(=O)NCC[C@H](N[C@@H](CCc2ccccc2)C(=O)N[C@@H](CC(C)C)C(=O)Nc2ccccc2)C(=O)O)cc1
target: Stromelysin-1 (Homo sapiens)
Sequence (P08254 whole entry): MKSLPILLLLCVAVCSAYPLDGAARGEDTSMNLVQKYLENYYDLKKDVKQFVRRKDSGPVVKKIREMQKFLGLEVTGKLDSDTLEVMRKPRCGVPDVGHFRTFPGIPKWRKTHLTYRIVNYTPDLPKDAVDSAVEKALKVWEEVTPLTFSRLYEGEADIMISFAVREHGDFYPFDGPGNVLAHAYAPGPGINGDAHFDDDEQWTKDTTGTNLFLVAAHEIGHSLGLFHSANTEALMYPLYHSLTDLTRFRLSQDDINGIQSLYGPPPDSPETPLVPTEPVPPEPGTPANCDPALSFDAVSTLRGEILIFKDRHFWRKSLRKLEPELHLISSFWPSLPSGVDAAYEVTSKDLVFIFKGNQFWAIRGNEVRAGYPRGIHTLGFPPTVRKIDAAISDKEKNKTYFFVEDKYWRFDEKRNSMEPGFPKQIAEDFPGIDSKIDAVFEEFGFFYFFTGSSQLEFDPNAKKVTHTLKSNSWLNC
unit.name: nM
IC50: 50

1: Cc1ccc(S(=O)(=O)NCC[C@H](N[C@@H](CCc2ccccc2)C(=O)N[C@@H](CC(C)C)C(=O)Nc2ccccc2)C(=O)O)cc1
2: COc1ccc(S(=O)(=O)NCC[C@H](N[C@@H](CCc2ccccc2)C(=O)N[C@@H](CC(C)C)C(=O)NOCc2ccccc2)C(=O)O)cc1
3: COc1ccc(S(=O)(=O)NCC[C@H](N[C@@H](CCc2ccccc2)C(=O)NCc2ccc(C(=O)O)cc2)C(=O)O)cc1
Exam item: list the entries in increasing order of IC50. Use the labels to give the requested order.
Marked response: 1, 2, 3
